Values were extracted from patent US5891877A.

Tested target: PAI-1 (Homo sapiens, UniProt P05121)
Sequence (P05121 24-402): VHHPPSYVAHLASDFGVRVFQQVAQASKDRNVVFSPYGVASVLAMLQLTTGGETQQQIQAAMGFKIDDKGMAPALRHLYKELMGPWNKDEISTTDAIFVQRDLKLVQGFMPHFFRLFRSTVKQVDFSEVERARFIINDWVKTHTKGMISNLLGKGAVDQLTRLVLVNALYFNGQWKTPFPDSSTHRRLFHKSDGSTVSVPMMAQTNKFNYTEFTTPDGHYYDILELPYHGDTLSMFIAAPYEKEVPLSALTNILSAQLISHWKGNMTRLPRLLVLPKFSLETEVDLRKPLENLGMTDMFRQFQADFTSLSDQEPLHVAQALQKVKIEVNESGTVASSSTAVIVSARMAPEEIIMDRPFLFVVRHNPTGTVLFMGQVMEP
Protocol details: PAI-1 inhibition in the S2251 chromogenic substrate assay (PAI functional assay)
Assay type: biochemical
Condition summary: PAI-1, S2251 assay; Table 1, second part
pIC50: −log10 of the molar value. Structures can show the parent of a compound that is named as a salt.
Readout type: pIC50

Completed entries (count: 10):
O=C(NCCCN1CCc2ccccc2C1)c1ccc(/C=c2\[nH]c(=O)/c(=C/c3ccccc3)[nH]c2=O)cc1 [Compound 5394] = 4.80
CN(C)CCOc1ccc(/C=c2\[nH]c(=O)/c(=C/c3ccccc3)[nH]c2=O)s1 [Compound 5324] = 5.05
CN(C)CCOCCOc1ccc(/C=c2\[nH]c(=O)/c(=C/c3ccccc3)[nH]c2=O)s1 [Compound 5388.HCl] = 4.92
O=C(NCCCCN1CCc2ccccc2C1)c1ccc(/C=c2\[nH]c(=O)/c(=C/c3ccccc3)[nH]c2=O)cc1 [Compound 5371] = 4.92
CN(C)CCCCCCOc1ccc(/C=c2\[nH]c(=O)/c(=C/c3ccccc3)[nH]c2=O)s1 [Compound 5389] = 5.60
CN(C)CCc1ccc(/C=c2\[nH]c(=O)/c(=C/c3ccccc3)[nH]c2=O)s1 [Compound 5335] = 4.66
COc1cc2c(cc1OC)CN(CCc1ccc(NC(=O)c3ccc(/C=c4\[nH]c(=O)/c(=C/c5ccccc5)[nH]c4=O)cc3)cc1)CC2 [Compound 5393] = 4.85
O=C(NCCCN1CCc2ccccc2C1)c1ccc(/C=c2\[nH]c(=O)/c(=C/c3ccccc3)[nH]c2=O)cc1 [Compound 5394.HCl] = 4.77
CN(C)CCCOc1ccc(/C=c2\[nH]c(=O)/c(=C/c3ccc4ccccc4c3)[nH]c2=O)cc1 [Compound 5206] = 5.52
CN(C)CCN(C)c1ccc(/C=c2\[nH]c(=O)/c(=C/c3ccccc3)[nH]c2=O)s1 [Compound 5299] = 5.15

a: CN(C)CCCOc1ccc(/C=c2\[nH]c(=O)/c(=C/c3cccc4ccccc34)[nH]c2=O)cc1 [Compound 5205]
b: CN(C)CCOCCOc1ccc(/C=c2\[nH]c(=O)/c(=C/c3ccccc3)[nH]c2=O)s1 [Compound 5388]
// compare: a vs b , metric pIC50, want the smaller When you have decided, please share the label of that item. a
(a: 4.00, b: 5.05)

---

Tested target: PAI-1 (Homo sapiens, UniProt P05121)
Protocol details: PAI-1 inhibition in the S2251 chromogenic substrate assay (PAI functional assay)
Assay type: biochemical
Condition summary: 100 μm; Table 1, first part; unit assumed
Readout type: INHIBITION OF PAI-1 (degree of inhibition) (%)

COc1ccc(/C=c2\[nH]c(=O)/c(=C/c3cc4ccccc4[nH]3)[nH]c2=O)cc1 [Compound 1718] = 62

I: O=c1[nH]/c(=C\c2c[nH]cn2)c(=O)[nH]/c1=C\c1ccccc1 [Compound 1926]
II: O=c1[nH]/c(=C\c2ccc(-n3ccnc3)cc2)c(=O)[nH]/c1=C\c1ccccc1 [Compound 1930]
III: CC(C)(C)OC(=O)n1cc(/C=c2\[nH]c(=O)/c(=C/c3ccccc3)[nH]c2=O)c2ccccc21 [Compound 1471]
IV: O=c1[nH]/c(=C\c2ccccc2)c(=O)[nH]/c1=C\C=C(c1ccccc1)c1ccccc1 [Compound 1922]
V: CN(C)CCCOc1ccc(/C=c2\[nH]c(=O)/c(=C/c3ccc(Cn4ccnc4)cc3)[nH]c2=O)cc1 [Compound 1975]
Arrange the 5 entries by INHIBITION OF PAI-1 (degree of inhibition) so the values rise. API: response body holds the labels in the requested order. V, IV, I, II, III

1: O=c1[nH]/c(=C\c2ccc(Cn3ccnc3)cc2)c(=O)[nH]/c1=C\c1ccccc1 [Compound 1929]
2: COc1ccc(/C=c2\[nH]c(=O)/c(=C/c3cccs3)[nH]c2=O)cc1 [Compound 1474]
3: COc1ccc(/C=c2\[nH]c(=O)/c(=C/c3ccc(OC(=O)CN4C(=O)c5ccccc5C4=O)cc3)[nH]c2=O)cc1 [Compound 1886]
Arrange the 3 entries by INHIBITION OF PAI-1 (degree of inhibition) so the values rise. API: response body holds the labels in the requested order. 1, 3, 2
(1: 27%, 3: 42%, 2: 64%)

---

Tested target: UniProtKB P05121
Protocol details: PAI-1 inhibition in the S2251 chromogenic substrate assay (PAI functional assay)
Type: biochemical
Condition summary: 100 μM; Table 1, second part; read-out: INHIBITION OF PAI-1 (degree of inhibition)
Readout type: inhibition at 100 µM (%)

Completed entries (count: 5):
CN(C)CCSCc1ccc(/C=c2\[nH]c(=O)/c(=C/c3ccoc3)[nH]c2=O)cc1 = 63
CN(C)CCCOc1ccc(/C=c2\[nH]c(=O)/c(=C/c3ccoc3)[nH]c2=O)cc1 = 77
O=c1[nH]/c(=C\c2ccc(OCCN3CCCC3)cc2)c(=O)[nH]/c1=C\c1ccccc1 = 68
CN(C)CCSCc1ccc(/C=c2\[nH]c(=O)/c(=C/c3ccsc3)[nH]c2=O)cc1 = 60
CN(C)CC(=O)NCc1ccc(/C=c2\[nH]c(=O)/c(=C/c3ccccc3)[nH]c2=O)cc1 = 43

A: CN(C)CC(=O)NCc1ccc(/C=c2\[nH]c(=O)/c(=C/c3ccsc3)[nH]c2=O)cc1
B: CN(C)CCCOc1ccc(/C=c2\[nH]c(=O)/c(=C/c3ccc(-n4ccnc4)cc3)[nH]c2=O)cc1
C: O=c1[nH]/c(=C\c2cc(Cl)sc2Cl)c(=O)[nH]/c1=C\c1ccccc1
D: CN(C)CCCOc1ccc(/C=c2\[nH]c(=O)/c(=C/c3ccncc3)[nH]c2=O)cc1
// sort entries: inhibition at 100 µM, high to low API: response body holds the labels in the requested order. C, A, B, D

---

Tested target: PAI-1 (Homo sapiens, UniProt P05121)
Protocol details: PAI-1 inhibition in the S2251 chromogenic substrate assay (PAI functional assay)
Assay type: biochemical
Condition summary: 12.5 μm; Table 1, first part; unit assumed
Readout type: INHIBITION OF PAI-1 (degree of inhibition) (%)

O=c1[nH]/c(=C\c2ccccc2)c(=O)[nH]/c1=C\C=C(c1ccccc1)c1ccccc1 = 13

P: O=c1[nH]/c(=C\c2c(Cl)cccc2Cl)c(=O)[nH]/c1=C\c1ccoc1
Q: O=c1[nH]/c(=C\C2CCCCC2)c(=O)[nH]/c1=C\c1ccccc1
R: CN(C)c1ccc(C=C/C=c2\[nH]c(=O)/c(=C/c3ccccc3)[nH]c2=O)cc1
// sort entries: INHIBITION OF PAI-1 (degree of inhibition), high to low API: response body holds the labels in the requested order. R, P, Q
(R: 14%, P: 1%, Q: 0%)

---

Tested target: PAI-1 (Homo sapiens, UniProt P05121)
Protocol details: PAI-1 inhibition in the S2251 chromogenic substrate assay (PAI functional assay)
Format: biochemical
Condition summary: PAI-1, S2251 assay; Table 1, second part
pIC50: −log10 of the molar value.
Readout type: pIC50

CN(C)CCCOc1ccc(/C=c2\[nH]c(=O)/c(=C/c3ccc(C(=O)NCCN4CCc5ccccc5C4)cc3)[nH]c2=O)cc1 = 4.74

I: CN(C)CCCOc1ccc(/C=c2\[nH]c(=O)/c(=C/c3ccc(C(=O)N4CCc5ccccc5C4)cc3)[nH]c2=O)cc1 [Compound 5367]
II: O=C(NCCN1CCc2ccccc2C1)c1ccc(/C=c2\[nH]c(=O)/c(=C/c3ccccc3)[nH]c2=O)cc1 [Compound 5391]
// compare: I vs II , metric pIC50, want the smaller When you have decided, please share the label of that item. I

---

Tested target: PAI-1 (Homo sapiens, UniProt P05121)
Protocol details: PAI-1 inhibition in the S2251 chromogenic substrate assay (PAI functional assay)
Assay type: biochemical
Condition summary: 50 μm; Table 1, first part; unit assumed
Readout type: INHIBITION OF PAI-1 (degree of inhibition) (%)

COc1ccc(/C=c2\[nH]c(=O)/c(=C/c3cn(C(=O)OC(C)(C)C)c4ccccc34)[nH]c2=O)cc1 = 58

I: CC(C)(C)OC(=O)n1cccc1/C=c1\[nH]c(=O)/c(=C/c2ccccc2)[nH]c1=O
II: COc1ccc(/C=c2\[nH]c(=O)/c(=C/c3cn(S(C)(=O)=O)c4ccccc34)[nH]c2=O)cc1
// pick larger INHIBITION OF PAI-1 (degree of inhibition) from pair: I vs II When you have decided, please share the label of that item. I

---

Tested target: PAI-1 (Homo sapiens)
Protocol details: PAI-1 inhibition in the S2251 chromogenic substrate assay (PAI functional assay)
Format: biochemical
Condition summary: 12.5 μm; Table 1, first part; unit assumed
Readout type: INHIBITION OF PAI-1 (degree of inhibition) (%)

CCOC(OCC)c1ccc(/C=c2\[nH]c(=O)/c(=C/c3ccccc3)[nH]c2=O)cc1 = 3

I: COc1ccc(/C=c2\[nH]c(=O)/c(=C/c3cccn3C(=O)OC(C)(C)C)[nH]c2=O)cc1
II: O=c1[nH]/c(=C\c2ccc(-n3ccnc3)cc2)c(=O)[nH]/c1=C\c1ccccc1
III: CN1CCC(N(C)Cc2ccc(/C=c3\[nH]c(=O)/c(=C/c4ccccc4)[nH]c3=O)cc2)CC1
// sort entries: INHIBITION OF PAI-1 (degree of inhibition), high to low API: response body holds the labels in the requested order. II, I, III
